Recorded values, source the Kinase Knowledgebase extract (Sharma et al. 2016).

target: MAPK14 (human); experiment: Assessement of MAPK14 Kinase Activity
Metric: IC50 (µM)
Write the answer as a number in µM, unit excluded.

Identify the reported IC50 for the following entry. CCc1nc(-c2cccc(C)c2)c(-c2ccnc(N=S(=O)(c3ccccc3)C3CC3)c2)s1 (stereo unspecified) 0.78

* * *

target: MAPK14 (human); assay: TNF-alpha Inhibition (Human Whole Blood); settings: blood cells
Metric: IC50 (µM)
Answer format: numeric, µM implied, no suffix.

Provide only the value of recorded IC50 for C[C@H](Nc1nccc(-c2cc(N3CCOCC3)nnc2-c2cccc(C(F)(F)F)c2)n1)c1ccccc1 1.2

* * *

biological target: CDK2 (human) (UniProt P24941); assay: Enzyme Assay
Metric: pIC50
Give only the number. pIC50 is defined as minus log10 of concentration in molar units.

Identify measured pIC50 corresponding to CN1CCN(c2ccc(Nc3ncc4cc(C#N)c(=O)n(C5CCCC5)c4n3)cc2)CC1 6.11

* * *

biological target: MAPK14 (UniProt Q16539); assay: CSBP binding - Inhibition of RBL-1 5 Lipoxygenase Enzyme Assay
Sequence (Q16539 whole entry, looked up): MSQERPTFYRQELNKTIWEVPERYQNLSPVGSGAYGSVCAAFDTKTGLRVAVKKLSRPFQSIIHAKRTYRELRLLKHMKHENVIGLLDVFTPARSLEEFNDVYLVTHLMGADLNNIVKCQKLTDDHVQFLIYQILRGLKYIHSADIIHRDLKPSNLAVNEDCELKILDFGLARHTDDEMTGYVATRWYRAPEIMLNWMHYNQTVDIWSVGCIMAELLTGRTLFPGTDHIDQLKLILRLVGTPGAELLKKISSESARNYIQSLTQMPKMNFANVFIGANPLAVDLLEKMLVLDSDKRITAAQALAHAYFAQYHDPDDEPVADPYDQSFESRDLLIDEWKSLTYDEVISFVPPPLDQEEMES
Metric: IC50

Entry Clc1ccc(-c2ncn(CCCN3CCOCC3)c2-c2ccncc2)cc1Cl needs its IC50 filled in; supply it. > 100 µM

Please list IC50 recorded for the compound Fc1ccc(-c2nc[nH]c2-c2ccncc2)cc1 > 100 µM

* * *

target: PIK3CG (human) (UniProt P48736); assay: Inhibition of PIK3CG Kinase Activity
Sequence (P48736 whole entry, looked up): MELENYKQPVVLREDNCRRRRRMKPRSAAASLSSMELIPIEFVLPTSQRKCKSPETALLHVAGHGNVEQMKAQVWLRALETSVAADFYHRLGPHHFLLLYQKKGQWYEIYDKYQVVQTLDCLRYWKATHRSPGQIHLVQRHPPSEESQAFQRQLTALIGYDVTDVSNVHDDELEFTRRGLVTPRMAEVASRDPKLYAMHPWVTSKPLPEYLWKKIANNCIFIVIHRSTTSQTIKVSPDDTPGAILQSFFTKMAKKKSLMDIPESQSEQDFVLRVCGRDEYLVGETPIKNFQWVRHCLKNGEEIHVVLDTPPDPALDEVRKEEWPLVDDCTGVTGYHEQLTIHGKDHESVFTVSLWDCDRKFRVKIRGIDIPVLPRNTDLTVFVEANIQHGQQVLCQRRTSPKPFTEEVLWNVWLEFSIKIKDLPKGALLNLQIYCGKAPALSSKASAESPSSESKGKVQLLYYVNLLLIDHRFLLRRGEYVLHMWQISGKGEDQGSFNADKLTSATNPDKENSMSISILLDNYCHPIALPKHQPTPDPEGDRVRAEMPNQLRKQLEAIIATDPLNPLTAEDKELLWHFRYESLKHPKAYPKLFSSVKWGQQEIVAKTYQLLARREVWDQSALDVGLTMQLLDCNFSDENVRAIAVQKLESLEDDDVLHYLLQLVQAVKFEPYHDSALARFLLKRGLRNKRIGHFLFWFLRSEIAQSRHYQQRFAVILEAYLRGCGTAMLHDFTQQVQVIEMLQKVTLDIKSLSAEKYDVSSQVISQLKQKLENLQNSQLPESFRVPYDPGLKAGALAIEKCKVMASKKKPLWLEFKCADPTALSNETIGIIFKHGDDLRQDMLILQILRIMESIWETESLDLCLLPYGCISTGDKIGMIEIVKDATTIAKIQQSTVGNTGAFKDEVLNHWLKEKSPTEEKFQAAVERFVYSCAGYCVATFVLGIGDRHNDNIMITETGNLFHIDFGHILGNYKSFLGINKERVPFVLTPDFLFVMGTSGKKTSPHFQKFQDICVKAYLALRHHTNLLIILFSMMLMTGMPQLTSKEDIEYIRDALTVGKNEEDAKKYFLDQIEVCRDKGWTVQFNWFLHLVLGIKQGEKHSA
pIC50: −log10 of the molar value.
Threshold rule: pIC50 greater than or equal to 7 is Met; below that, Not met.

Check this molecule for pIC50 at or above 7: Cc1cc(-c2sc(NC(=O)NCC(=O)N(C)C)nc2C)nc([S+](C)[O-])n1 (centres undefined) Met

Does the reported pIC50 for CC1(C)CCN(C(=O)c2ccc(NC(=O)Nc3ccc(-c4nc(O[C@H]5CCOC5)nc(N5CCOCC5)n4)cc3)cc2)CC1 fall at or above the 7 mark? Met

Could you verify whether the entry CC(=O)Nc1nc(C)c(-c2csc(Nc3cccc(-c4nnn[nH]4)c3)n2)s1 shows pIC50 of no less than 7? Met

Check this molecule for pIC50 at or above 7: C=CCN(/C=C1/C(=O)O[C@H](COC)[C@@]2(C)C1=C(O)C(=O)C1=C2[C@H](OC(C)=O)C[C@]2(C)C(=O)CC[C@H]12)CC=C Not met

Evaluate COc1ccc(OC)c(Nc2nc3ccccc3nc2NS(=O)(=O)c2ccc3c(c2)sc(=O)n3C)c1 : pIC50 at minimum 7? Not met

Given the entry Cc1[nH]c2ccc(Br)cc2c1C=C1Oc2cc(O)cc(O)c2C1=O , answer whether its pIC50 meets or surpasses 7. Not met

* * *

target: EGFR (human) (UniProt P00533); conditions: nih3t3
Sequence (P00533 whole entry, looked up): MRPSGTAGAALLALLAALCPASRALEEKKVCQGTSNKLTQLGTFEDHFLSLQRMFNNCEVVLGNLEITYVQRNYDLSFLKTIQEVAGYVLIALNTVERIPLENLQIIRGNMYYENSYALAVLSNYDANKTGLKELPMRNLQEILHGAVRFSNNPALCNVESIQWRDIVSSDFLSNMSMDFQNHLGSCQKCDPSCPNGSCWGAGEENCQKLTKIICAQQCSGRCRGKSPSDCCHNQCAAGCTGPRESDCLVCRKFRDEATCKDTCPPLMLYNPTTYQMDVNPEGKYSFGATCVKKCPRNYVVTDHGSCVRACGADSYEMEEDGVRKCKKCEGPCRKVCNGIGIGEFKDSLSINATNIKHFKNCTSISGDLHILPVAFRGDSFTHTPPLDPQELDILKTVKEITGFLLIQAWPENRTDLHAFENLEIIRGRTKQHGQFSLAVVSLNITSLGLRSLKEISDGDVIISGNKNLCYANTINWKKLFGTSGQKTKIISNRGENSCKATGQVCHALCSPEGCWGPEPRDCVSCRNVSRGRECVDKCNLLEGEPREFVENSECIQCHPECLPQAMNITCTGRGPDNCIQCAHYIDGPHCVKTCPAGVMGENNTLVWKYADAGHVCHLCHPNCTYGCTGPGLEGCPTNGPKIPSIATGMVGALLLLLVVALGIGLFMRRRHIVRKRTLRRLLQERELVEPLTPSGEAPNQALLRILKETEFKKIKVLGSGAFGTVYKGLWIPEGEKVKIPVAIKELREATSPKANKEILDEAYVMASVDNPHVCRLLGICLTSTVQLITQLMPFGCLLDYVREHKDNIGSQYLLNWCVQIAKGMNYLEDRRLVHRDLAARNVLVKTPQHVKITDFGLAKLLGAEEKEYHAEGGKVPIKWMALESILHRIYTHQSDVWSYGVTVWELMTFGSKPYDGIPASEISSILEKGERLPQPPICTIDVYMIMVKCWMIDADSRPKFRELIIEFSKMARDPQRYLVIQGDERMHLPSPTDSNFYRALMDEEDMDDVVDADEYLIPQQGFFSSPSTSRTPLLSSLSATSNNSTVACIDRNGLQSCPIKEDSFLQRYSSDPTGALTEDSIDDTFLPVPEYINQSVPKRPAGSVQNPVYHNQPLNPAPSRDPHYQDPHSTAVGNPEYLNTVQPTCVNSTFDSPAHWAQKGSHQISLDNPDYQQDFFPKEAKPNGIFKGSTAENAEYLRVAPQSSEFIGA
pIC50: −log10 of the molar value.
Metric: pIC50

Answer with pIC50 of Cc1cc(Nc2ncnc3ccc(N4CCOCC4)cc23)ccc1OC1CCN(C(=O)CC(C)(C)C)CC1 measured for EGFR (human) (UniProt P00533). < 5.00

* * *

biological target: UniProt P00533
Metric: Ki

Identify the reported Ki for the following entry. Clc1cccc(Nc2ncnc3ccccc23)c1 16 to 32 nM

* * *

Metric: IC50

Tell me IC50 of Nc1nc(Nc2ccc(S(N)(=O)=O)cc2)nn1C(=O)c1c(F)cccc1F when tested on EGFR (human) (UniProt P00533). > 100 µM
